assay: Intrinsic clearance in rat liver microsomes at 1 uM after 30 mins in presence of NADPH; assay type: ADME; conditions: read-out: CLH
observed property: microsomal CLint at 1 µM (µL/min/mg)
Just the number in µL/min/mg, nothing appended.

// worked examples, microsomal CLint at 1 µM included
                               entry_smiles  value
0  Cc1nc2cc(-c3cc(C(O)(C(F)(F)F)C(F)(F)F)cnc3N3CCN(S(=O)(=O)c4ccc(N)nc4)CC3)ccc2o1     99
1  Nc1ccc(S(=O)(=O)N2CCN(c3ncc(C(O)(C(F)(F)F)C(F)(F)F)cc3-c3ccc4ocnc4c3)CC2)cn1    120
2  Nc1ccc(S(=O)(=O)N2CCN(c3ncc(C(O)(C(F)(F)F)C(F)(F)F)cc3-c3ccccc3F)CC2)cn1     47

Please supply the value of reported microsomal CLint at 1 µM for the item "Cn1cc(-c2cc(C(O)(C(F)(F)F)C(F)(F)F)cnc2N2CCN(S(=O)(=O)c3ccc(N)nc3)CC2)cn1"
44
